target: human ORL-1 receptor (opioid receptor like 1) (human, UniProt P41146 1-370); experiment: cell-based or functional assay
Sequence (P41146 whole entry): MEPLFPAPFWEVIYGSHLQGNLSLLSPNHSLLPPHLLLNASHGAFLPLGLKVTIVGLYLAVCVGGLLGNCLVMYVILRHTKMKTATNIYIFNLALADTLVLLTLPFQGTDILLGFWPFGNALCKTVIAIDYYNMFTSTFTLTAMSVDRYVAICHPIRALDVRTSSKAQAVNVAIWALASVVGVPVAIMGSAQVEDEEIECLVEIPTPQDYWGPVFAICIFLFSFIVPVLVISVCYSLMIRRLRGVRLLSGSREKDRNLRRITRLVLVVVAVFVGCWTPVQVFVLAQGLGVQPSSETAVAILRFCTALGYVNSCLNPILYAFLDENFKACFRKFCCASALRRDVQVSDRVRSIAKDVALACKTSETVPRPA
Square brackets hold non-standard residues; d marks the D form. * marks the point of attachment. Heptanoyl = CCCCCCC(=O)*; Butyryl = CCCC(=O)*
# [^35S]GTPγS Binding EC50 annotations

binder	[^35S]GTPγS Binding EC50
Ac-RYYRWR-NH2 (also called parent peptide) [Ac-RYYRWR-NH2]	1.2 nM
Ac-R[dY]Y[dR]WR-NH2 (It is not clear from the print which residues the (D) marks belong to, nor whether the last Arg is missing on purpose) [IV-12-B Ac-RY(D)YR(D)WNH2]	> 10000 nM
Butyryl-RYYRWR-NH2 (SMILES CCCC(=O)N[C@@H](CCCNC(=N)N)C(=O)N[C@@H](Cc1ccc(O)cc1)C(=O)N[C@@H](Cc1ccc(O)cc1)C(=O)N[C@@H](CCCNC(=N)N)C(=O)N[C@@H](Cc1c[nH]c2ccccc12)C(=O)N[C@@H](CCCNC(=N)N)C(N)=O) [IV-15-A Butryl-RYYRWR-NH2]	35.3 nM
Heptanoyl-RYYRWR-NH2 (SMILES CCCCCCC(=O)N[C@@H](CCCNC(=N)N)C(=O)N[C@@H](Cc1ccc(O)cc1)C(=O)N[C@@H](Cc1ccc(O)cc1)C(=O)N[C@@H](CCCNC(=N)N)C(=O)N[C@@H](Cc1c[nH]c2ccccc12)C(=O)N[C@@H](CCCNC(=N)N)C(N)=O, see recheck) [IV-18-C Heptanoyl-RYYRWR-NH2]	16.9 nM

Origin of values: patent US20030166571A1
